# method: Selectivity index, ratio of IC50 for rat L6 cells to IC50 for Trypanosoma brucei rhodesiense STIB900
# Type: toxicity, cell-based
# measurement-conditions: L6 cells versus Trypanosoma brucei rhodesiense STIB900, read-out: Ratio IC50
Classify by measured selectivity ratio: T if it is equal to or exceeds 1000, F if it is smaller.

Task: Entry Cl.Cl.N=C(N)c1ccc(-c2ccc3cc(-c4ccc(C(=N)N)o4)[nH]c3c2)cc1 : is its selectivity ratio no less than 1000?
Result: F

Task: Similarly, Cl.Cl.N=C(N)c1ccc(-c2ccc3[nH]c(-c4ccc(C(=N)N)s4)cc3c2)cc1 ?
Result: T

Task: Similarly, Cl.Cl.N=C(N)c1ccc(-c2ccc3[nH]c(-c4ccc(C(=N)N)cc4)cc3c2)cc1 ?
Result: T

Task: Similarly, Cl.Cl.N=C(N)c1ccc(-c2ccc3[nH]c(-c4ccc(C(=N)N)cc4)nc3c2)cc1 ?
Result: T

Task: Similarly, Cl.Cl.Cn1c(-c2ccc(C(=N)N)cc2)nc2cc(-c3ccc(C(=N)N)cc3)ccc21 ?
Result: T

Task: Similarly, Cl.Cl.N=C(N)c1ccc(-c2ccc3cc(-c4ccc(C(=N)N)s4)[nH]c3c2)cc1 ?
Result: F

Task: Similarly, Cl.Cl.N=C(N)c1ccc(-c2ccc3cc(-c4ccc(C(=N)N)cc4)[nH]c3c2)cc1 ?
Result: T

Task: Similarly, Cl.Cl.N=C(N)c1ccc(-c2ccc3cc(-c4cnccc4C(=N)N)[nH]c3c2)cc1 ?
Result: F

Task: Similarly, N=C(N)c1ccc(-c2cc3ccc(C(=N)N)cc3[nH]2)cc1 [DAPI] ?
Result: F

Task: Similarly, Cl.Cl.N=C(N)c1ccc(-c2ccc3cc(-c4cc(C(=N)N)ccn4)[nH]c3c2)cc1 ?
Result: T

Task: Similarly, Cl.Cl.N=C(N)c1ccc(-c2ccc3nc(-c4ccc(C(=N)N)cc4)n(O)c3c2)cc1 ?
Result: F
